System: Saccharomyces cerevisiae;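 note: PSI is a weighted mean of sequencing reads over stability bins, variants kept only with over 10 reads, mCherry proximal and sfGFP distal, peptide attached via GGGS linker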
Test: protein stability index of tFT-peptide fusion (C-terminal peptide) (PSI (0-1 scale)); higher = more stable (slower turnover)
Details: genetic background: wild type; temperature: 37 C
assay endpoint: protein stability index

INSERT INTO results (sequence, measurement) VALUES
  ('TLLAFLIYLCFL', 0.499),
  ('FFVWGVFLGVSW', 0.362),
  ('GGFHWCPSASRG', 0.749),
  ('FFLSFICVMLCG', 0.257),
  ('LGCRFCFVGVVG', 0.574),
  ('CLFFFFFHLPIF', 0.476),
  ('CRLATILRITAL', 0.444),
  ('LFVGLVSFRIGA', 0.575),
  ('PVHARYCSLKWA', 0.516),
  ('VCALHSAPLLIF', 0.467);

Value source: the supplement of paper PMC10724198
